- study-system: T1, human FcRn (AcrobioSystems; Catalog No: FCM-H5286) (human, UniProt P55899 24-297; P61769 21-119)
- T1 construct: Bought protein
- T1 sequence (P55899 24-297 limits assumed, chain 1 of 2): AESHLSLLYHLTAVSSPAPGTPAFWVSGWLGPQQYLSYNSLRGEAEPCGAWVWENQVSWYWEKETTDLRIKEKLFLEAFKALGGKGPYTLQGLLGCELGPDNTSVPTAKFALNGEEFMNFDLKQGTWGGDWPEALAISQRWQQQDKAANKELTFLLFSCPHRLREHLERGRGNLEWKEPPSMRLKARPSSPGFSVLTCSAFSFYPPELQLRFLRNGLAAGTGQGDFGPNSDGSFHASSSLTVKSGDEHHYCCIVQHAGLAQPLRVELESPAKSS
- T1 sequence (P61769 21-119 limits assumed, chain 2 of 2): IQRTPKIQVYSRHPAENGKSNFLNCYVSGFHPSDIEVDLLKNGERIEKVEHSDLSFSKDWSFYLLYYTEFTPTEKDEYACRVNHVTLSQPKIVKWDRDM
- test-method-notes: SPR Biacore 8K, polypeptide coupled to CM5 chip, human FcRn as analyte, pH 6.0, steady state affinity fit
readout: Kd (nM)
Enter your answer as a number in nM; do not include the unit.

stdin: Form field: reported Kd of Spink9-112.K62G.Fc (SEQ ID NO: 56) (Fc fusion, Mutant SPINK9 domain fused directly to a C-terminal IgG Fc) IECAKQTKQMVDCSHYKKLPPEQELYCTREYDPICGSDGKTYGNDCFFCSKVKKTDGTLKFVHFGKCEPKSCDKTHTCPPCPAPEAAGGPSVFLFPPKPKDTLMISRTPEVTCVVVDVSHEDPEVKFNWYVDGVEVHNAKTKPREEQYNSTYRVVSVLTVLHQDWLNGKEYKCKVSNKALPAPIEKTISKAKGQPREPQVYTLPPSREEMTKNQVSLTCLVKGFYPSDIAVEWESNGQPENNYKTTPPVLDSDGSFFLYSKLTVDKSRWQQGNVFSCSVLHEALHSHYTQKSLSLSPGK
stdout: 233
